# Tested on: WI38 (non-transformed lung fibroblast cells)
# MEASUREMENT DESCRIPTION: 96 hr SRB assay, WI38
# Format: cell-based
# STUDY CONDITIONS: Homo sapiens, WI-38, 96 h, read-out: IC50, WI38
READOUT NAME: IC50 (nM)
# output: bare number, implied unit nM

(Q) Please report the measured IC50 for CN1CCN(CCCNc2cc3c4c(c(NCCCN5CCN(C)CC5)cc5c4c2C(=O)N(CCCN2CCOCC2)C5=O)C(=O)N(CCCN2CCOCC2)C3=O)CC1 [Compound 8]
(A) 230
